# studySystem: D(3) dopamine receptor (Rattus norvegicus)
# measurementNotes: Binding affinity towards rat Dopamine receptor D3 in Sf9 cells expressing in recombinant baculovirus (Bv) using [125I]IABN as radioligand
For each record, check the reported Ki: if it is below 2 nM write Fulfilled, else write Not fulfilled.

Exam item: Problem: For the compound `O=C(NCCCCN1CCN(c2cccc(Cl)c2Cl)CC1)c1ccc(-c2ccccn2)cc1` , is Ki under 2 nM?
Marked response: Fulfilled

Exam item: Same question for `O=C(NCCCCN1CCN(c2cccc(Cl)c2Cl)CC1)c1cc2cc(F)ccc2[nH]1` please.
Marked response: Not fulfilled

Exam item: Same question for `O=C(NC/C=C/CN1CCN(c2cccc(Cl)c2Cl)CC1)c1cccc2c1-c1ccccc1C2` please.
Marked response: Not fulfilled

Exam item: Same question for `O=C1c2ccccc2C(=O)N1CCCCN1CCN(c2cccc(Cl)c2Cl)CC1` please.
Marked response: Not fulfilled

Exam item: Same question for `O=C(NC/C=C\CN1CCN(c2cccc(Cl)c2Cl)CC1)c1ccc2c(c1)Cc1ccccc1-2` please.
Marked response: Not fulfilled

Exam item: Same question for `O=C(NCCCCN1CCN(c2cccc(Cl)c2Cl)CC1)c1ccc2c(c1)Cc1ccccc1-2` please.
Marked response: Fulfilled

Exam item: Same question for `O=C(NCCCN1CCN(c2cccc(Cl)c2Cl)CC1)c1cccc2c1-c1ccccc1C2` please.
Marked response: Not fulfilled

Exam item: Same question for `Nc1ccc2c(c1)-c1c(cccc1C(=O)NCCCCN1CCN(c3cccc(Cl)c3Cl)CC1)C2` please.
Marked response: Not fulfilled

Exam item: Same question for `O=C(NCCCCN1CCN(c2cccc(Cl)c2Cl)CC1)c1ccc(I)cc1` please.
Marked response: Fulfilled

Exam item: Same question for `O=C(NCCCCN1CCN(c2cccc(Cl)c2Cl)CC1)c1cnc2ccccc2n1` please.
Marked response: Fulfilled

* * *

Endpoint: pKi. System: D(2) dopamine receptor (Rattus norvegicus, UniProt P61169). Items follow.
Sequence (P61169 whole entry): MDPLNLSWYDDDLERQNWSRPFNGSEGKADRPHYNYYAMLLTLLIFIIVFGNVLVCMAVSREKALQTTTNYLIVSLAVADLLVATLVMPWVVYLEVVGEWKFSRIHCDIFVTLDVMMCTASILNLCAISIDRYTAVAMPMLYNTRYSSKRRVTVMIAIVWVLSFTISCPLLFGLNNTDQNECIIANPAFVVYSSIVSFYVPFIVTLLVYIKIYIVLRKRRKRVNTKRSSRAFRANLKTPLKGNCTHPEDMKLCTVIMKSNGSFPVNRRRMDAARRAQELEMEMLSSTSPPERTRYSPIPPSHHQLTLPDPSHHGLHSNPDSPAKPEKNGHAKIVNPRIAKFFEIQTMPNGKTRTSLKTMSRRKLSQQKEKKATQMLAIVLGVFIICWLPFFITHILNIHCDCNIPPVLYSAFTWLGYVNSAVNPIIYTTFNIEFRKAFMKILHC
One number for each entry, as −log10 of the molar value.

Record excerpt, results attached:
{"columns": ["smilesData", "metric", "obsValue"],
 "data": [
  ["O=C1c2ccccc2C(=O)N1CCCCCN1CCN(c2cccc(Cl)c2Cl)CC1", "pKi", 7.06],
  ["O=C(NC/C=C\\CN1CCN(c2cccc(Cl)c2Cl)CC1)c1ccccc1", "pKi", 7.70],
  ["O=C(NCC#CCN1CCN(c2cccc(Cl)c2Cl)CC1)c1ccc2c(c1)Cc1ccccc1-2", "pKi", 6.00],
  ["Nc1ccc2c(c1)-c1c(cccc1C(=O)NCCCCN1CCN(c3cccc(Cl)c3Cl)CC1)C2", "pKi", 7.10],
  ["O=C(NCCCCN1CCN(c2cccc(Cl)c2Cl)CC1)C1c2ccccc2-c2ccccc21", "pKi", 7.26],
  ["O=C1c2ccccc2C(=O)N1CCCCN1CCN(c2cccc(Cl)c2Cl)CC1", "pKi", 6.99]
]}

Below is a list of compounds. For each, state its recorded pKi.
1. O=C(NC/C=C\CN1CCN(c2cccc(Cl)c2Cl)CC1)c1cccc2c1-c1ccccc1C2
2. O=C(NC/C=C/CN1CCN(c2cccc(Cl)c2Cl)CC1)c1ccccc1
3. O=C(NCCCCN1CCN(c2cccc(Cl)c2Cl)CC1)c1cccc2c1-c1ccccc1C2
4. O=C(NCCCCN1CCN(c2cccc(Cl)c2Cl)CC1)c1ccc(I)cc1
5. O=C(NCC#CCN1CCN(c2cccc(Cl)c2Cl)CC1)c1cccc2c1-c1ccccc1C2
6. O=C(NC/C=C/CN1CCN(c2cccc(Cl)c2Cl)CC1)c1cccc2c1-c1ccccc1C2

Marked response:
1. 7.97
2. 7.30
3. 6.87
4. 7.06
5. 6.05
6. 6.97

Below is a list of compounds. For each, state its recorded pKi.
1. O=C(NCCCCN1CCN(c2cccc(Cl)c2Cl)CC1)c1cnc2ccccc2n1
2. O=C(NCCCN1CCN(c2cccc(Cl)c2Cl)CC1)C1c2ccccc2-c2ccccc21

Marked response:
1. 6.96
2. 6.60

* * *

# studySystem: UniProt:P35462
# Sequence (P35462 whole entry): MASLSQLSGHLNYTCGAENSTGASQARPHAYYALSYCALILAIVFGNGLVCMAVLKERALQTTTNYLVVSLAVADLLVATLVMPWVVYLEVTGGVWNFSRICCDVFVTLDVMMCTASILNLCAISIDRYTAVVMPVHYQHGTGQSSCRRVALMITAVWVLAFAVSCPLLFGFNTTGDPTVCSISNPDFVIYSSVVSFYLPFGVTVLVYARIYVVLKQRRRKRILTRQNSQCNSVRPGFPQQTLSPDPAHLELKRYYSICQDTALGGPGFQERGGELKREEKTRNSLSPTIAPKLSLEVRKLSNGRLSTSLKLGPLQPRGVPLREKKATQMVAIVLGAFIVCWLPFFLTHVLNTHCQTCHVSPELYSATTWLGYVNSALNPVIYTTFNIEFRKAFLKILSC
metric: IC50 (µM)
Numbers only, in µM.

Exam item: Looking for the measured IC50 of `O=C(NCCCCN1CCN(c2cccc(Cl)c2Cl)CC1)c1cnc2ccccc2n1` , can you help?
Marked response: 0.0269

* * *

# studySystem: D(3) dopamine receptor (Rattus norvegicus, UniProt P19020)
# Sequence (P19020 whole entry): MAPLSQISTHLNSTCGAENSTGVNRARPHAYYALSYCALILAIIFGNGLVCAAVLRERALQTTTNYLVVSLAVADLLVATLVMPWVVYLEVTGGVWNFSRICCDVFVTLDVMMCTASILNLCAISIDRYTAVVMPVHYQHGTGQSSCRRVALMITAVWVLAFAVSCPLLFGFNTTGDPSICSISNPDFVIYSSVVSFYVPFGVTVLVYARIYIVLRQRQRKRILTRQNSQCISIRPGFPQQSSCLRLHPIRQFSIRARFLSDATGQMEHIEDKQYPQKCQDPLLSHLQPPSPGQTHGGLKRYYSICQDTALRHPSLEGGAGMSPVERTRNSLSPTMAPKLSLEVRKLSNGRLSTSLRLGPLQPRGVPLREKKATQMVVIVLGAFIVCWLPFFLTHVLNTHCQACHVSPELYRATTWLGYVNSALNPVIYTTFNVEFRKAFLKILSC
# measurementNotes: Binding affinity towards rat Dopamine receptor D3 in Sf9 cells expressing in recombinant baculovirus (Bv) using [125I]IABN as radioligand
Please provide measured Ki for the entries that follow.
Give bare numbers, in nM.

{"columns": ["smilesData", "studySystem", "unitTag", "Ki"],
 "data": [
  ["O=C(NCCCCN1CCN(c2cccc(Cl)c2Cl)CC1)C1c2ccccc2-c2ccccc21", "D(3) dopamine receptor (Rattus norvegicus, UniProt P19020)", "nM", 11.1]
]}

Below is a list of molecules. For each, state its recorded Ki.
1. O=C(NCCCN1CCN(c2cccc(Cl)c2Cl)CC1)c1ccc2c(c1)Cc1ccccc1-2
2. O=C(NCCCCN1CCN(c2cccc(Cl)c2Cl)CC1)c1cccc2c1-c1ccccc1C2
3. O=C(NCCCN1CCN(c2cccc(Cl)c2Cl)CC1)c1cccc2c1-c1ccccc1C2=O
4. O=C1c2ccccc2C(=O)N1CCCCCN1CCN(c2cccc(Cl)c2Cl)CC1
5. O=C(NCC#CCN1CCN(c2cccc(Cl)c2Cl)CC1)c1ccccc1

Marked response:
[199, 4.5, 43, 5.6, 394]

Below is a list of molecules. For each, state its recorded Ki.
1. O=C(NCC#CCN1CCN(c2cccc(Cl)c2Cl)CC1)c1cccc2c1-c1ccccc1C2
2. O=C(NCCCN1CCN(c2cccc(Cl)c2Cl)CC1)C1c2ccccc2-c2ccccc21
3. O=C(NCC#CCN1CCN(c2cccc(Cl)c2Cl)CC1)c1ccc2c(c1)Cc1ccccc1-2
4. O=C(NCCCCN1CCN(c2cccc(Cl)c2Cl)CC1)c1cccc2c1-c1ccccc1C2=O

Marked response:
[1080, 34, 214, 1.6]

Below is a list of molecules. For each, state its recorded Ki.
1. O=C(NCCCN1CCN(c2ccccc2)CC1)C1c2ccccc2-c2ccccc21
2. O=C(NCCCCCN1CCN(c2cccc(Cl)c2Cl)CC1)c1cccc2c1-c1ccccc1C2=O

Marked response:
1: 84.5; 2: 2

Below is a list of molecules. For each, state its recorded Ki.
1. O=C(NC/C=C/CN1CCN(c2cccc(Cl)c2Cl)CC1)c1ccc2c(c1)Cc1ccccc1-2
2. O=C(NC/C=C/CN1CCN(c2cccc(Cl)c2Cl)CC1)c1ccccc1

Marked response:
5.9
1.3

Below is a list of molecules. For each, state its recorded Ki.
1. O=C(NC/C=C\CN1CCN(c2cccc(Cl)c2Cl)CC1)c1ccccc1
2. O=C(NC/C=C\CN1CCN(c2cccc(Cl)c2Cl)CC1)c1cccc2c1-c1ccccc1C2

Marked response:
[4.9, 6.5]
